Entries and their measured pEC50 follow.
target: M1 muscarinic receptor (Homo sapiens, UniProt P11229)
Sequence (P11229 whole entry): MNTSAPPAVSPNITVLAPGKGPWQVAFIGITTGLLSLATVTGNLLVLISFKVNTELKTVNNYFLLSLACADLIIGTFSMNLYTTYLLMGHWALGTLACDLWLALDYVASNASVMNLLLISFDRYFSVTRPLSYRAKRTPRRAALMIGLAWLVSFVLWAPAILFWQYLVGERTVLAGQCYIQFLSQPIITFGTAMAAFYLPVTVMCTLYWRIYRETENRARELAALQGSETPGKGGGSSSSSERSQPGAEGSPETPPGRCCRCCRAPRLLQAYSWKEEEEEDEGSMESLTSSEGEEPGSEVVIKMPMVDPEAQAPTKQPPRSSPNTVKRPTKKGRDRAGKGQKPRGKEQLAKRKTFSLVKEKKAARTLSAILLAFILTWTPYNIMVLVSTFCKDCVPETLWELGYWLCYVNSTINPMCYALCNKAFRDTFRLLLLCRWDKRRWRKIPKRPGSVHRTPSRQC
measurement.protocol: Functional mobilization of intracellular calcium (FLIPR) in CHO cells expressing M1
study.conditions: CHO cells expressing M1, FLIPR calcium
pEC50: −log10 of the molar value.

Solved entries (count: 5):
>>> value("CC[C@@H](C)CN1CCC2(CC[C@H](NC(C)=O)c3ccccc32)CC1 [compound 56]")
"> 5.70"
>>> value("CC(C)(C)CCN1CCC2(CC[C@@H](NC(=O)C3CCCO3)c3ccc(F)cc32)CC1 (stereo partly shown) [compound 133]")
"> 5.70"
>>> value("CC(=O)NC(C(=O)N[C@@H]1CCC2(CCN(CCC(C)(C)C)CC2)c2ccccc21)C(C)C (stereo partly shown) [compound 87]")
"< 5.30"
>>> value("Cc1cc(C(=O)N[C@@H]2CCC3(CCN(CCC(C)(C)C)CC3)c3cc(F)ccc32)nn1C [compound 40]")
"> 5.70"
>>> value("CC(C)(C)CCN1CCC2(CC1)CC(F)(F)C(=O)c1ccccc12 [compound 117]")
"> 5.70"

The compound identified as CC(C)(C)CCN1CCC2(CC[C@H](NC(=O)C3CC(=O)N3)c3ccc(F)cc32)CC1 (stereo partly shown) [compound 67] registered its pEC50 at > 5.70

The compound identified as CC(C)(C)CCN1CCC2(CC[C@@H](N3CCCCC3=O)c3ccc(F)cc32)CC1 [compound 6] registered its pEC50 at < 5.30

The compound identified as CCN(C(=O)C1CCN(C(=O)OC)CC1)[C@H]1CCC2(CCN(CCC(C)(C)C)CC2)c2ccccc21 [compound 166] registered its pEC50 at < 5.30
